# experimentalTarget: Toll-like receptor 7 (Mus musculus, UniProt P58681)
# Sequence (P58681 whole entry): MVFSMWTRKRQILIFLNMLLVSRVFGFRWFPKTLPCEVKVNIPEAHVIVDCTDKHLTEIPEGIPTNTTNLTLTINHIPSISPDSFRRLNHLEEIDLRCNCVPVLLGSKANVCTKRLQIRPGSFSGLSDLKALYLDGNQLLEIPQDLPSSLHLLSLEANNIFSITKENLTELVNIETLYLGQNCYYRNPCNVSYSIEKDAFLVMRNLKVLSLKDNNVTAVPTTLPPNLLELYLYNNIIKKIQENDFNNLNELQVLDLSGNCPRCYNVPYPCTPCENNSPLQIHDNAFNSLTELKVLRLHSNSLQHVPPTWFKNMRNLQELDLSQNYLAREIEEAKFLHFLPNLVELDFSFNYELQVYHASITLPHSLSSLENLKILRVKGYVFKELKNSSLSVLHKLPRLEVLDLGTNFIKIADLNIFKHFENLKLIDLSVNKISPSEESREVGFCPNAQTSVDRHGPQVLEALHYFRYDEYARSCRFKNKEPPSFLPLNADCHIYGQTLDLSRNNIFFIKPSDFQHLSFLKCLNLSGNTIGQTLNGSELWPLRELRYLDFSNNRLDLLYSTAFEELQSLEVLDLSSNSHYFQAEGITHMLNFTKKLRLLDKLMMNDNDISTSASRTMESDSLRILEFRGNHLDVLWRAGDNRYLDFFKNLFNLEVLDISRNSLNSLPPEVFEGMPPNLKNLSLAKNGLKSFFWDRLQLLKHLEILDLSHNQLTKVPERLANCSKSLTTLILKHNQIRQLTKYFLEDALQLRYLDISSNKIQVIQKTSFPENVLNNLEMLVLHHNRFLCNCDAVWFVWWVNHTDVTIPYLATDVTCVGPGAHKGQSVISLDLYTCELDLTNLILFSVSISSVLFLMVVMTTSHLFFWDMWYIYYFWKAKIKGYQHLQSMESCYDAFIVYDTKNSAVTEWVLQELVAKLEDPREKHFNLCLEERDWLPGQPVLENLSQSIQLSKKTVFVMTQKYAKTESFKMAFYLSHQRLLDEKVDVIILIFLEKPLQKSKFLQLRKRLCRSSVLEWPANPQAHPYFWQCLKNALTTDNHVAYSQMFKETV
# procedureSummary: Agonist activity at mouse TLR7
recordedMetric: EC50 (µM)
Give the value, in units of µM, as a plain number.

Consider the reported EC50 for these compounds:
molecule	experimentalTarget	unitSymbol	EC50
CCC[C@@H](CCO)Nc1nc(N)nc2cnn(Cc3ncc(C4=CC5(CCN(C6CCOCC6)CC5)C4)cc3OC)c12	Toll-like receptor 7 (Mus musculus, UniProt P58681)	µM	0.127
CCC[C@@H](CCO)Nc1nc(N)nc2cnn(Cc3ncc(C4=CC5(CCN(C(C)C)CC5)C4)cc3OC)c12	Toll-like receptor 7 (Mus musculus, UniProt P58681)	µM	0.159
CCC[C@@H](CCO)Nc1nc(N)nc2cnn(Cc3ncc(C4CCC5(CC4)CN(C4CCOCC4)C5)cc3OC)c12	Toll-like receptor 7 (Mus musculus, UniProt P58681)	µM	0.029
CCCCNc1nc(N)nc2cnn(Cc3ccc(N4CCNCC4)cc3OC)c12	Toll-like receptor 7 (Mus musculus, UniProt P58681)	µM	1.95
CCCCNc1nc(N)nc2cnn(Cc3ncc(C4CCNCC4)cc3OC)c12	Toll-like receptor 7 (Mus musculus, UniProt P58681)	µM	0.984
CCC[C@@H](CCO)Nc1nc(N)nc2cnn(Cc3ncc(C4CCN(C)CC4)cc3OC)c12	Toll-like receptor 7 (Mus musculus, UniProt P58681)	µM	0.076
CCC[C@@H](CCO)Nc1nc(N)nc2cnn(Cc3ncc(C4CCC5(CC4)CNC5)cc3OC)c12	Toll-like receptor 7 (Mus musculus, UniProt P58681)	µM	0.177
CCC[C@@H](CCO)Nc1nc(N)nc2cnn(Cc3ncc(C4CCN(CCO)CC4)cc3OC)c12	Toll-like receptor 7 (Mus musculus, UniProt P58681)	µM	0.124

[in] Look up EC50: "CCC[C@@H](CCO)Nc1nc(N)nc2cnn(Cc3ncc(C4CC5(C4)CN(C4CCOCC4)C5)cc3OC)c12"
[out] 0.148
